B1: KIAA0774 (parent)
chain: FEDEVKRLGWQQQAELQELEERLQ

- Variants of: B1
- Protocol Text: protein stability index of a GFP-peptide fusion (GPS, HEK-293T) (PSI 1-6); higher = more stable;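 also: lentivirally expressed fusions sorted by FACS into six bins by GFP to DsRed ratio, PSI derived from sequencing read proportions per bin multiplied by bin number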
- Run Conditions: c terminus: a fixed tail appended
Given measured protein stability index, output 1 if it is greater than or equal to 4 and -1 if not.

- Change: "L23G"
  Class Label: 1
- Change: "R22V"
  Class Label: -1
- Change: "V5I"
  Class Label: -1
- Change: "L16C"
  Class Label: 1
- Change: "V5C"
  Class Label: -1
- Change: "W10I"
  Class Label: 1
- Change: "L19K"
  Class Label: -1
- Change: "L16N"
  Class Label: 1

Could you please find out whether Q17V has protein stability index that meets 4 or exceeds it? 1

Cool, now Q13W -1

Cool, now E21S 1
